Note to self: these molecules have IC50 reported for HPK1 (Homo sapiens (Human)) in various publications.

Qu. Item under review: Cn1ccc2c(-c3ncc(Nc4ccc(N5CCOCC5)cn4)c4c3CNC4=O)cccc21 . Reported IC50?
Ans. < 0.1 µM

Qu. Item under review: CCc1cnc(N)nc1-c1ccc(Nc2ccc(N3CCN(C)CC3)cn2)c2c1CNC2=O . Reported IC50?
Ans. 1 to 5 µM

Qu. Item under review: Cn1ccc2c(-c3ncc(Nc4cncc(N5CC[C@@H]6CNC[C@@H]65)n4)c4c3CNC4=O)ccnc21 (single isomer, unassigned) . Reported IC50?
Ans. 0.1 to 1 µM

----------
pIC50: −log10 of the molar value.
Note to self: these molecules have pIC50 reported for HPK1 (Homo sapiens (Human)) in various publications.

O=C1NCc2c(-c3cnc4c(F)cccn34)ncc(Nc3ccc(N4CC[C@@H](F)[C@@H](O)C4)cn3)c21 = > 7.00
Cc1cccc2c(-c3ccc(Nc4ccc([C@@H]5CCOC5)c(CN(C)C)n4)c4c3CNC4=O)cnn12 = > 7.00
Cn1ccc2c(-c3ccc(Nc4ccc(N5CCCNCC5)cn4)c4c3CNC4=O)ccnc21 = > 7.00
COc1cccc(F)c1-c1cc2c(cn1)NC(=O)/C2=C(/C)Nc1cnn([C@H](C)C#N)c1 = 7.00 to 7.30
C/C(Nc1cnn(C2CCOCC2)c1)=C1/C(=O)Nc2cnc(-c3cnccc3C)cc21 = > 7.30
C[C@@H]1CN(c2c(NC(=O)c3ccc(=O)n(-c4c(F)cccc4F)n3)ccc3nn(C45CC(C)(C4)C5)cc23)C[C@@H]1N = > 7.00

Qu. Which measured pIC50 belongs to O=C1NCc2c(-c3cnc4cnccn34)ccc(Nc3ccc(N4C[C@H]5COC[C@H]5C4)cn3)c21 , tested on HPK1 (Homo sapiens (Human))?
Ans. > 7.00

Qu. Which measured pIC50 belongs to CN1CCN2c3ccc(-c4cnc5[nH]nc(-c6ccc(C(=O)N7CC(O)C7)cc6)c5n4)cc3OCC2C1 (stereo not drawn) , tested on HPK1 (Homo sapiens (Human))?
Ans. 7.00 to 8.00

Qu. Which measured pIC50 belongs to Cc1ccn2c(-c3ncc(Nc4ccc(N5CCO[C@@H](C(C)(C)O)C5)cn4)c4c3CNC4=O)cnc2c1F , tested on HPK1 (Homo sapiens (Human))?
Ans. > 7.00

----------
Note to self: these compounds have IC50 reported for UniProtKB Q92918 in various publications.

COc1cc2c(cc1Nc1ncc3c(N)c(F)c(-c4cnc5c(c4C)NCCO5)cc3n1)CCN(C)C2 = 0.000377 µM
COc1cccc(F)c1-n1nc2c(-c3cnn(C4CCN(C)CC4)c3)n[nH]c2cc1=O = 0.05 to 0.5 µM
CN(C)C1CCc2cc(-c3cc(Nc4ccc(N5CCC(O)CC5)cn4)c4c(=O)[nH]ccc4n3)c(F)cc21 (stereo not drawn) = 0.1 to 1 µM
CN1CCN(c2ccc3nc(-c4c(N[C@@H]5CCCOC5)c5ccsc5[nH]c4=O)[nH]c3c2)CC1 = ≤ 0.05 µM
Cc1cc(-c2cnc(N)c(-n3cc(C(=O)N4CCC(F)(F)C4)cn3)n2)cc2c1CCN(C)C2 = 0.056 µM
COc1cc2c(cc1Nc1ncc3ccc(N4C(=O)OC[C@H]4C(C)C)cc3n1)CN(C)CC2 = 0.107 µM
O=C1NCc2c(-c3cnc4cnccn34)ccc(Nc3ccc(S(=O)(=O)N4CCC4)cn3)c21 = 0.1 to 1 µM
COCCn1ccc(N/C(C)=C2\C(=O)Nc3cnc(-c4cnccc4C)cc32)n1 = < 0.05 µM
COCc1nc2c(N3CC[C@H](N)C3)c(NC(=O)c3ccnc(-c4c(F)cccc4OC)c3F)ccc2n1C = < 0.1 µM
Cc1nn(CC(F)F)cc1Nc1ncc2c(N)c(F)c(-c3cnc4c(c3C)NCCO4)cc2n1 = 0.0002 µM

Qu. Which measured IC50 belongs to COc1cccc(F)c1-c1ccc2c(c1)/C(=C(\C)Nc1ccc(N3CCOCC3)cc1)C(=O)N2 , tested on UniProtKB Q92918?
Ans. 0.05 to 0.1 µM

Qu. Which measured IC50 belongs to Cn1nc(Nc2ccc(-c3ccnc4c3ccn4C)c3c2C(=O)NC3)cc1C1CCOCC1 , tested on UniProtKB Q92918?
Ans. < 0.1 µM

Qu. Which measured IC50 belongs to O=C1NCc2c(-c3ccnc4cnccc34)ncc(Nc3ccc(N4CCC(O)CC4)cn3)c21 , tested on UniProtKB Q92918?
Ans. > 1 µM

----------
Note to self: these compounds have IC50 reported for UniProtKB Q92918 in various publications.

Illustrative cases are given below, each with its answer.
CCOc1ccc(F)c(-c2cc(Nc3ccc(N4CCC(O)CC4)cn3)c3c(=O)[nH]ccc3n2)c1 = 100 to 1000 nM
Cc1c[nH]c(=O)c2c(Nc3ccc(N4CCC(O)CC4)cn3)ccnc12 = 100 to 1000 nM
Cn1c(C(C)(C)F)nc2c(N3CC[C@@H](N)C3)c(NC(=O)c3ccc(=O)n(-c4c(F)cccc4F)n3)ccc21 = < 100 nM
CC(C)c1nc2c(N3CC[C@H](N)C3)c(NC(=O)c3ccc(=O)n(-c4c(F)cccc4F)n3)ccc2n1C = < 100 nM

Kindly consider the entry below.
Qu. Which measured IC50 belongs to Cc1c(-c2cc3nc(Nc4ccc(NS(C)(=O)=O)cc4)ncc3c(N)c2F)cnc2c1NCCO2 , tested on UniProtKB Q92918?
Ans. 0.0932 nM

----------
Note to self: these molecules have IC50 reported for UniProtKB Q92918 in various publications.

Illustrative cases are given below, each with its answer.
O=c1[nH]ccc2nc(-c3cc4c(cc3F)C(N3CCOCC3)CC4)cc(Nc3ccc(N4CCC(O)CC4)cn3)c12 (centres unmarked) = ≤ 100 nM
O=C1NCc2c(-c3cccnc3)ncc(Nc3ccc(N4CCNCC4)cn3)c21 = 1000 to 5000 nM
CN(C)CCc1nc(Nc2cnc(-c3ccnc4c3ccn4C)c3c2C(=O)NC3)ccc1C1CCOC1 (stereo in doubt) = < 100 nM
COCCCN(C)C(=O)c1ccc(-c2c[nH]c3ncc(-c4cc(C)c5c(c4)CN(C)CC5)nc23)cc1 = 17 nM

Qu. Item under review: COc1cc2c(cc1Nc1ncc3ccc(N[C@H]4CCN(C)C4=O)cc3n1)CN(C)CC2 . Reported IC50?
Ans. 96.7 nM

Qu. Item under review: CN(C)Cc1nc(Nc2ccc(-c3cnc4cc(F)ccn34)c3c2C(=O)NC3)ccc1[C@@]1(O)CCOC1 . Reported IC50?
Ans. < 100 nM

Qu. Item under review: N[C@@H]1CCN(c2c(NC(=O)c3ccc(=O)n(-c4c(F)cccc4F)n3)ccc3nn(CC(F)(F)F)cc23)C1 . Reported IC50?
Ans. < 100 nM

Qu. Item under review: COc1cc2c(cc1Nc1ncc(C(N)=O)c(NC3CCc4ccc(C)cc43)n1)CN(C)CC2 (centres unmarked) . Reported IC50?
Ans. 32.8 nM

Qu. Item under review: Cc1cc(-c2cnc(N)c(OCc3ccncc3Cl)n2)cc2c1CCN(C)C2 . Reported IC50?
Ans. 35 nM

----------
Note to self: these molecules have IC50 reported for HPK1 (Homo sapiens (Human)) in various publications.

Illustrative cases are given below, each with its answer.
Cc1cccc(Nc2ncc(C(N)=O)c(Nc3cccc4c3CCNC4=O)n2)c1C = 0.071 µM
Cc1cccc(F)c1-n1nc2c(-c3ccc4c(c3)CN(C3CC(N)C3)CC4)n[nH]c2cc1=O (stereo not shown) = 0.05 to 0.5 µM
CCn1cc(Oc2nc(-c3cc4c(c(NC)c3)CCN(C)C4)cnc2N)cn1 = 0.014 µM
CC1(C)CN(c2c(NC(=O)c3ccc(=O)n(-c4c(F)cccc4F)n3)ccc3c2cnn3[C@@H]2CCOC2)C[C@@H]1N = < 0.1 µM
CC(C)(O)[C@H]1CCCN(c2ccc(Nc3ccc(-c4cnc5cc(F)ccn45)c4c3C(=O)NC4)nc2)C1 = < 0.1 µM

Qu. Item under review: COc1cccc(F)c1-n1nc2c(-c3ccc(N4CCN(CC(C)(C)O)CC4)cc3)n[nH]c2cc1=O . Reported IC50?
Ans. ≤ 0.05 µM

Qu. Item under review: COc1cc2c(cc1Nc1ncc3ccc(-c4ccc5c(c4)OCCO5)cc3n1)CNCC2 . Reported IC50?
Ans. 0.141 µM

----------
pIC50: −log10 of the molar value.
Note to self: these compounds have pIC50 reported for HPK1 (Homo sapiens (Human)) in various publications.

CN1CCN2c3ccc(-c4cnc5[nH]cc(-c6ccc(C(=O)C7CNC7)cc6)c5c4)cc3OCC2C1 (centres unmarked) = 7.00 to 8.00
CN1CCN(c2ccc(Nc3cnc(-c4ccnc5c4ccn5C)c4c3C(=O)NC4)nc2)CC1 = > 7.00
O=C1NCc2c(-c3cnc4cc(F)ccn34)ccc(Nc3ccc(CN4CCOCC4)cn3)c21 = > 7.00
O=C1NCc2c(-c3cnc4cc(F)ccn34)ccc(Nc3ccc(N4CCC[C@@](O)(CN5CCOCC5)C4)cn3)c21 = > 7.00
Cc1cccc(F)c1-n1nc2c(-c3ccc(N4CCN(C)CC4)nc3)n[nH]c2cc1=O = 6.30 to 7.30
O=C1NCc2c(-c3cnc4c(F)cccn34)ncc(Nc3ccc(N4CC[C@H](F)[C@@H](O)C4)cn3)c21 = > 7.00

Qu. Item under review: CN(C)C(C)(C)c1nc(Nc2ccc(-c3cnc4cc(F)ccn34)c3c2C(=O)NC3)ccc1[C@H]1CCOC1 . Reported pIC50?
Ans. 6.00 to 7.00

Qu. Item under review: N[C@@H]1CCCN(c2c(NC(=O)c3ccc(=O)n(-c4c(F)cccc4F)n3)ccc3c2cnn3[C@@H]2CCOC2)C1 . Reported pIC50?
Ans. > 7.00
